Data origin, for the record: paper PMC9482650

- study_system: GORASP1, Q9BQQ3
- Sequence (Q9BQQ3 1-208): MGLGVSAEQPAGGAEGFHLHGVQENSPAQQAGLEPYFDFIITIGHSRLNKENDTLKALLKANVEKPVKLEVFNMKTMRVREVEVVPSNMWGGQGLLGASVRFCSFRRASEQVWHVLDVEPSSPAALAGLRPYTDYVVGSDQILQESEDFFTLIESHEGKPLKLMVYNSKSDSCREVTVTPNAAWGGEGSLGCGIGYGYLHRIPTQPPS
- assay_protocol: holdup assay
- Parameters: key: below the threshold = too weak to quantify, mostly under pKd 3.1 to 4
- setup_conditions: plain residues with an end cap or a label only (N-terminal biotin on a linker: ttds)
experimental_readout: pKd

KKYVDAETSL [SLC4A7, Q9Y6M7]: below the threshold
QRQARSETLV [HPV59-E6, Q81964]: below the threshold
SGSRPSATVV [HPV73-E6, Q82005]: 4.19
RLPKIKETTV [FRMPD4, Q14CM0]: below the threshold
EMDRRPATVV [PLCB4, Q15147]: 4.06
VDFPPKESSL [ACVR2A, P27037]: below the threshold
SKPTRRETEV [HPV35-E6, P27228]: below the threshold
RLQRRRETQV [HPV18-E6, P06463]: below the threshold
